Experiment: Apparent volume of distribution with respect to bioavailability in healthy human at 100 to 500 […]
Format: ADME, organism-based
Settings: in vivo, in the assay text read “100 to 500 mg” for “100 to 500 mg/kg”, read-out: Vc/F
Measure Name: Vd/F (L)
Dear colleague, please return just the value in L, with no unit written.

Returns the measured Vd/F for the input compound. Input: `Cc1cnc(NCC(F)(F)c2ccccc2)c(=O)n1CC(=O)NCCONC(=N)N` 530

###

Assay: Plasma concentration in Sprague-Dawley rat deep vein thrombosis model at 1 mg/kg, iv administered for 45 mins measured after 30 mins post dose
Type: ADME, organism-based
Set-up: dose 1 mg/kg, route intravenous
Measure Name: concentration at 0.5 h

Returns the measured concentration at 0.5 h for the input compound. Input: `Cc1cnc(NCC(F)(F)c2ccccc2)c(=O)n1CC(=O)NCCONC(=N)N` 800 nM
